Source: ChEMBL document CHEMBL4673222

# Assayed system: Cystathionine beta-synthase (Homo sapiens, UniProt P35520)
# Sequence (P35520 whole entry): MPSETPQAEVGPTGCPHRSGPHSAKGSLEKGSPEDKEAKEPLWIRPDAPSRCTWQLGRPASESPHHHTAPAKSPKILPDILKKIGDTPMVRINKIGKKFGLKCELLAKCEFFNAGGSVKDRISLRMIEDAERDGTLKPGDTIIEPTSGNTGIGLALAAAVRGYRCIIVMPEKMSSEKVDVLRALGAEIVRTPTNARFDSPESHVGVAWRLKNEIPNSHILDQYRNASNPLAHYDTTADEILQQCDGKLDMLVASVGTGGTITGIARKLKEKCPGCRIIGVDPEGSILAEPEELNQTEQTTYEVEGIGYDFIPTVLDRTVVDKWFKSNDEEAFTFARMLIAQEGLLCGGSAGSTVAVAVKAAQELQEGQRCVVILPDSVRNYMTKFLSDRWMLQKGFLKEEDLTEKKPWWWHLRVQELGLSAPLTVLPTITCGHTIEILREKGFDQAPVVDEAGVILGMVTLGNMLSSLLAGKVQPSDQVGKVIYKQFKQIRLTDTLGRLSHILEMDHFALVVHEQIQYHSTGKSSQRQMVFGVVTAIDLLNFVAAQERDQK
# Assay text: Inhibition of CBS (unknown origin) by AzMC based fluorescence assay
Parameter measured: IC50 (µM)
One number for each entry, in µM.

### Prompt Input O=C(O)C1=CC(=C(c2ccc(O)c(C(=O)O)c2)c2ccc(O)c(C(=O)O)c2)C=CC1=O [AURINTRICARBOXYLIC ACID] , output reported IC50.
### Response 3

* * *

Parameter 'readout' = Ki; parameter 'system' = Cystathionine gamma-lyase (Homo sapiens).
Numbers only, in µM.

Compound: O=C(O)C1=CC(=C(c2ccc(O)c(C(=O)O)c2)c2ccc(O)c(C(=O)O)c2)C=CC1=O [AURINTRICARBOXYLIC ACID]
Parameter measured: Ki
Unit tag: µM
Endpoint result: 0.6

Continue with the next compound.
### Prompt Input COc1cccc2c1C(=O)C1=C(C[C@H](CC(=O)O)O[C@H]1C)C2=O , output reported Ki.
### Response 4.9

* * *

# Assayed system: Cystathionine gamma-lyase (Homo sapiens, UniProt P32929)
# Sequence (P32929 whole entry): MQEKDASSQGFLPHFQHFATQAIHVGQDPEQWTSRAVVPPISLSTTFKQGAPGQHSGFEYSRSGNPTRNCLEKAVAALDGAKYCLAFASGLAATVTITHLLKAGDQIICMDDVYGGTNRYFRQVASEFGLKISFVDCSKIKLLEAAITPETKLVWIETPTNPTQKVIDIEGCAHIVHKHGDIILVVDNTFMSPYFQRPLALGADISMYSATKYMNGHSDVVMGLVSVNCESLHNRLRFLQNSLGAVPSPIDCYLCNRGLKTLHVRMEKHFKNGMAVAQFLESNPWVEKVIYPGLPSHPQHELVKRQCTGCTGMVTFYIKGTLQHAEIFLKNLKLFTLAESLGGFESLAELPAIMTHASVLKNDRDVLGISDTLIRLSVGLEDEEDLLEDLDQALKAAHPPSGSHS
# Assay text: Inhibition of human CSE using L-Cys as the substrate in presence of 0.025% Triton X-100 by tandem well based HTS assay
Parameter measured: IC50 (µM)
Numbers only, in µM.

### Prompt State the measured IC50 (Cystathionine gamma-lyase (Homo sapiens, UniProt P32929)) of O=C(O)C1=CC(=C(c2ccc(O)c(C(=O)O)c2)c2ccc(O)c(C(=O)O)c2)C=CC1=O
### Response 1.8

* * *

# Assayed system: Cystathionine gamma-lyase (Homo sapiens, UniProt P32929)
# Assay text: Non-covalent reversible inhibition of human CSE
Parameter measured: pIC50
Numbers only, as −log10 of the molar value.

### Prompt Input COc1cccc2c1C(=O)C1=C(C[C@H](CC(=O)O)O[C@H]1C)C2=O , output reported pIC50.
### Response 5.21

* * *

# Assayed system: Cystathionine gamma-lyase (Homo sapiens, UniProt P32929, Y114F)
# Sequence (P32929 whole entry Y114F): as the sequence (P32929 whole entry) above, with Y114F counted along it
# Assay text: Inhibition of human CSE Y114F mutant expressed in HEK293T cells assessed as reduction in H2S contents
Parameter measured: pIC50
Numbers only, as −log10 of the molar value.

### Prompt Input O=C(O)C1=CC(=C(c2ccc(O)c(C(=O)O)c2)c2ccc(O)c(C(=O)O)c2)C=CC1=O , output reported pIC50.
### Response 3.55
